Values were extracted from patent US12545673B2.

test: in vitro; conditions: dog
result type: CC50 at 3 days

[[record]]
compound_string = "CCS(=O)(=O)N1CC[C@H](Nc2c(Br)cnc3nc(-c4cc(C)n(-c5cccc(S(N)(=O)=O)c5)c4C)[nH]c23)C1"
result_type = "CC50 at 3 days"
result = "> 100 µM"

[[record]]
compound_string = "CCS(=O)(=O)N1CC[C@H](Nc2c(Br)cnc3[nH]c(-c4cc(C)n(-c5cc(S(N)(=O)=O)ccc5Cl)c4C)nc23)C1"
result_type = "CC50 at 3 days"
result = "> 100 µM"

[[record]]
compound_string = "CCS(=O)(=O)N1CC[C@H](Nc2c(Br)cnc3nc(-c4cc(C)n(-c5ccc(OCCN6CCOCC6)cc5)c4C)[nH]c23)C1"
result_type = "CC50 at 3 days"
result = "> 100 µM"

[[record]]
compound_string = "CCS(=O)(=O)N1CC[C@H](Nc2c(Br)cnc3[nH]c(-c4cc(C)n(-c5cc(NS(C)(=O)=O)ccc5C)c4C)nc23)C1"
result_type = "CC50 at 3 days"
result = "> 100 µM"

[[record]]
compound_string = "CCS(=O)(=O)N1CC[C@H](Nc2c(Br)cnc3nc(-c4cc(C)n(-c5cccc(NS(C)(=O)=O)c5)c4C)[nH]c23)C1"
result_type = "CC50 at 3 days"
result = "> 100 µM"


====

test system: acute myeloid leukemia cell line U937; assay: Cancer cell proliferation inhibitory activity evaluation 1 (CCK-8), U937; assay type: cell-based; conditions: Homo sapiens, U-937; 10 μM, 72 hours, CCK-8 (Table 2); read-out: Cancer cell proliferation inhibitory activity U937
result type: inhibition at 10 µM

[[record]]
compound_string = "Cc1cc(-c2nc3c(Nc4cccc(S(N)(=O)=O)c4)c(Br)cnc3[nH]2)c(C)n1-c1ccc(N2CCOCC2)cc1"
result_type = "inhibition at 10 µM"
result = "> 50%"

[[record]]
compound_string = "CCS(=O)(=O)N1CC[C@H](Nc2c(Br)cnc3[nH]c(-c4cc(C)n(-c5ccccc5Cl)c4C)nc23)C1"
result_type = "inhibition at 10 µM"
result = "> 50%"

[[record]]
compound_string = "CCS(=O)(=O)N1CC[C@H](Nc2c(Br)cnc3[nH]c(-c4cc(C)n(-c5ccc(N6CCOCC6)cc5)c4C)nc23)C1"
result_type = "inhibition at 10 µM"
result = "10 to 50%"

[[record]]
compound_string = "CCS(=O)(=O)N1CC[C@H](Nc2c(Br)cnc3nc(-c4cc(C)n(-c5ccc(OCCN6CCOCC6)cc5)c4C)[nH]c23)C1"
result_type = "inhibition at 10 µM"
result = "> 50%"

[[record]]
compound_string = "CCS(=O)(=O)N1CC[C@H](Nc2c(Br)cnc3nc(-c4cc(C)n(-c5cccc(OCCN6CCOCC6)c5)c4C)[nH]c23)C1"
result_type = "inhibition at 10 µM"
result = "> 50%"

[[record]]
compound_string = "Cc1ccc(NS(C)(=O)=O)cc1-n1c(C)cc(-c2nc3c(Nc4cccc(S(N)(=O)=O)c4)c(Br)cnc3[nH]2)c1C"
result_type = "inhibition at 10 µM"
result = "10 to 50%"

[[record]]
compound_string = "Cc1cc(-c2nc3ncc(Br)c(Nc4cccc(S(N)(=O)=O)c4)c3[nH]2)c(C)n1-c1cccc(OCCN2CCOCC2)c1"
result_type = "inhibition at 10 µM"
result = "> 50%"

